Target: Glucocorticoid receptor (Homo sapiens)
Sequence (P04150 whole entry): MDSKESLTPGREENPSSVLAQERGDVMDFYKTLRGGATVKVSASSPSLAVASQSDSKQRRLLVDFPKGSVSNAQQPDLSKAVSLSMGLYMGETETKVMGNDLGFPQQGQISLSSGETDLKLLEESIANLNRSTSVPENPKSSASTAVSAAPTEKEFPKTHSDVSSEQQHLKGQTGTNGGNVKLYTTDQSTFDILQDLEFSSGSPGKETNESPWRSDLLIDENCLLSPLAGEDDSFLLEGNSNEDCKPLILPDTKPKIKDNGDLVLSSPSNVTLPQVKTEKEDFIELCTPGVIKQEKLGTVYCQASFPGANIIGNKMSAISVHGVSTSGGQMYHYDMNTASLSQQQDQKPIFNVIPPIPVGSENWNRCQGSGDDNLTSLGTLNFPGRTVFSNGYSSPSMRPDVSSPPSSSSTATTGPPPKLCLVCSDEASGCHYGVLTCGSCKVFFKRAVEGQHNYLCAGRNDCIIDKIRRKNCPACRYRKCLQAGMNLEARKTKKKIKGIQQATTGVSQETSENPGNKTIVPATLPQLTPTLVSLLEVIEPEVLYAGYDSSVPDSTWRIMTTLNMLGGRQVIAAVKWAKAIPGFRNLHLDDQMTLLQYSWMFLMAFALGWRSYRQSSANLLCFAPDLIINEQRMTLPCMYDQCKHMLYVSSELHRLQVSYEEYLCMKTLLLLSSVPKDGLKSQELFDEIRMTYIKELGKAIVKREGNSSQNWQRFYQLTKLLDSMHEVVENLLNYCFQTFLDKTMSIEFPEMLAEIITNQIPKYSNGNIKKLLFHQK
pEC50: −log10 of the molar value.
property: pEC50

*Q* Given CCCN(CC(O)(CNC(=O)c1cnn(-c2ccc(F)cc2)c1N)C(F)(F)F)C(=O)c1c(F)cccc1F (racemic) , state its recorded pEC50.
*A* 7.60

*Q* Next compound up: CCN(CC(O)(CNC(=O)c1cnn(-c2ccc(F)cc2)c1N)C(F)(F)F)C(=O)c1c(F)cccc1S(C)(=O)=O (racemic)
*A* 7.60

###

Target or system UniProt P05177; recorded quantity IC50.
Sequence (P05177 whole entry): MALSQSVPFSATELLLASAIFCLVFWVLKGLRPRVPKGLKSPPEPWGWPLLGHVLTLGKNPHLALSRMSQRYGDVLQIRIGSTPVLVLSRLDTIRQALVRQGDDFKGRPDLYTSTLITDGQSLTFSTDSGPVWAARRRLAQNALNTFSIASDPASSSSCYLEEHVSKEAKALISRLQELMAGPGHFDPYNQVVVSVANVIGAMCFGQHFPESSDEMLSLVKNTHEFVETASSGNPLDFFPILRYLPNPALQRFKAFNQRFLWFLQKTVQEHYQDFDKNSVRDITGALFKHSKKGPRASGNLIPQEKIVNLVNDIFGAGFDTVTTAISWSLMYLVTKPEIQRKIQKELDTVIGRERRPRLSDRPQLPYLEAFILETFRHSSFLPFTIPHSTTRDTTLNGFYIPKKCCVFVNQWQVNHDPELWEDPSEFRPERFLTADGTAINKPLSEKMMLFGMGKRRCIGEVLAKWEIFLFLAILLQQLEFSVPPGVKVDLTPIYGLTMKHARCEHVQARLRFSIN
property: IC50 (µM)

*Q* Given CCN(CC(O)(CNC(=O)c1cnn(-c2ccc(F)cc2)c1N)C(F)(F)F)C(=O)c1c(Cl)cccc1Cl (stereo not drawn) , state its recorded IC50.
*A* 100

*Q* Next compound up: Nc1c(C(=O)NCC(O)(CN(CCO)C(=O)c2c(Cl)cccc2Cl)C(F)(F)F)cnn1-c1ccc(F)cc1 (stereo not drawn)
*A* 100

*Q* Next compound up: CCN(CC(O)(CNC(=O)c1cnn(-c2ccc(F)cc2)c1N)C(F)(F)F)C(=O)c1ncccc1Cl (stereo not drawn)
*A* 100

###

Experiment: Inhibition of TNF-induced NF-kappaB activation in human A549 cells after 15 hrs
Conditions: Homo sapiens, A549, 15 h, read-out: pIC50 (converted)
property: IC50 (nM)

*Q* Given CCN(CC(O)(CNC(=O)c1cnn(-c2ccc(F)cc2)c1N)C(F)(F)F)C(=O)c1c(Cl)cccc1Cl (stereo not given) , state its recorded IC50.
*A* 0.501

(a) CCN(CC(O)(CNC(=O)c1cnn(-c2ccc(F)cc2)c1N)C(F)(F)F)C(=O)c1ccc(F)cc1Cl (racemic)
(b) CCCN(CC(O)(CNC(=O)c1cnn(-c2ccc(F)cc2)c1N)C(F)(F)F)C(=O)c1c(F)cccc1F (racemic)
(c) C[C@]12C=CC(=O)C=C1CC[C@@H]1[C@@H]2[C@@H](O)C[C@@]2(C)[C@H]1CC[C@]2(O)C(=O)CO [PREDNISOLONE]
*Q* With regard to IC50, arrange the entries in ascending order, please. Write the labels, ordered according to the request.
*A* c, b, a
(c: 10 nM, b: 15.8 nM, a: 100 nM)
